Where do the numbers come from? From patent US20250152746A1.

# Tested on: PCSK9 gene
# protocol description: PCSK9 gRNA/SpCas9 editing in primary human hepatocytes (Tables 2, 4)
# Type: cell-based
# test settings: 2500 ng/RNA/mL; SpCas9 mRNA MS002 1:1 by weight
In the oligonucleotide strings, read from the 5' end, every base follows the letter of its sugar. An asterisk marks phosphorothioate; unmarked linkages are phosphodiester. Other units and linkages are bracketed, terminal groups are in braces. A string of capitals states the bases alone. m = 2'-O-methyl; r = 2'-OH (RNA)
Assign class 1 to entries whose Human Primary Hepatocyte Editing % 2500 meets or exceeds 30%; assign class 0 to the rest.

Example entries begin here.
{"molecule": "GA158: PCSK9 gRNA; protospacer GCTAGCCTTGCGTTCCGAGG (SEQ ID NO: 152) (nucleic acid) guide: mG*mC*mU*rArGrCrCrUrUrGrCrGrUrUrCrCrGrArGrGrGrUrUrUrUrArGrArGrCrUrArGrArArArUrArGrCrArArGrUrUrArArArArUrArArGrGrCrUrArGrUrCrCrGrUrUrArUrCrArArCrUrUrGrArArArArArGrUrGrGrCrArCrCrGrArGrUrCrGrGrUrGrCrU*mU*mU*mU", "cat": "class 1"}
{"molecule": "GA214: PCSK9 gRNA; protospacer CCTTGGCCACGCCGGCATCC (SEQ ID NO: 208) (nucleic acid, sugars from the 5' end m3 r94 m3, linkages s3 o93 s3 (s phosphorothioate, o phosphodiester), T or U not given here) guide: CCUUGGCCACGCCGGCAUCCGUUUUAGAGCUAGAAAUAGCAAGUUAAAAUAAGGCUAGUCCGUUAUCAACUUGAAAAAGUGGCACCGAGUCGGUGCUUUU", "cat": "class 0"}

// query Kindly determine if Human Primary Hepatocyte Editing % 2500 recorded for GA183: PCSK9 gRNA; protospacer CTACGTGGTGGTGCTGAAGG (SEQ ID NO: 177) (nucleic acid) guide: mC*mU*mA*rCrGrUrGrGrUrGrGrUrGrCrUrGrArArGrGrGrUrUrUrUrArGrArGrCrUrArGrArArArUrArGrCrArArGrUrUrArArArArUrArArGrGrCrUrArGrUrCrCrGrUrUrArUrCrArArCrUrUrGrArArArArArGrUrGrGrCrArCrCrGrArGrUrCrGrGrUrGrCrU*mU*mU*mU is above or exactly 30%.
// result class 1

// query Kindly determine if Human Primary Hepatocyte Editing % 2500 recorded for GA175: PCSK9 gRNA; protospacer GAAGATGAGTGGCGACCTGC (SEQ ID NO: 169) (nucleic acid, sugars from the 5' end m3 r94 m3, linkages s3 o93 s3 (s phosphorothioate, o phosphodiester), T or U not given here) guide: GAAGAUGAGUGGCGACCUGCGUUUUAGAGCUAGAAAUAGCAAGUUAAAAUAAGGCUAGUCCGUUAUCAACUUGAAAAAGUGGCACCGAGUCGGUGCUUUU is above or exactly 30%.
// result class 0
